Test system: Candida albicans
method_description: Antifungal activity against Candida albicans CBS 9975 after 24 hrs by broth microdilution method
Assay type: functional
study_conditions: CBS 9975, 24 h
Starred links: 1 amine or outer side, 2 acyl side, 3 side chain; linkers in the order of their positions; H or OH if unused. Positions of bridges follow the written chain, without caps; N, C: chain ends. Non-standard residues stand in square brackets, D forms with d. Residues, ends and D or L forms follow the SMILES beside them. *: point of attachment. pTerphenylCO(4''-OnC5H11) = CCCCCOc1ccc(-c2ccc(-c3ccc(C(=O)*)cc3)cc2)cc1; hTyr = N[C@@H](CCc1ccc(O)cc1)C(=O)O; Ethylenediamine = C(CN[*:2])N[*:1]; Hyp = O=C(O)[C@@H]1C[C@@H](O)CN1; AllylGly = C=CC[C@H](N)C(=O)O; Orn = NCCC[C@H](N)C(=O)O
value_kind: MIC

- molecule: "CCCCCOc1ccc(-c2ccc(-c3ccc(C(=O)N[C@H]4CCCCNC(=O)[C@@H]5C[C@@H](O)CN5C(=O)[C@H](CCCN)NC(=O)[C@H](CCc5ccc(O)cc5)NC(=O)[C@@H]5C[C@@H](O)CN5C(=O)[C@H]([C@@H](C)O)NC4=O)cc3)cc2)cc1 ({pTerphenylCO(4''-OnC5H11)}-KT[Hyp][hTyr][Orn][Hyp]; lactam 1-C)"
  result: "> 100 µg/mL"

Form field: reported MIC of CCCCCOc1ccc(-c2ccc(-c3ccc(C(=O)N[C@H]4C/C=C\C[C@@H](C(=O)NCCN)NC(=O)[C@@H]5C[C@@H](O)CN5C(=O)[C@H](CCCN)NC(=O)[C@H](CCc5ccc(O)cc5)NC(=O)[C@@H]5C[C@@H](O)CN5C(=O)[C@H]([C@@H](C)O)NC4=O)cc3)cc2)cc1 ({pTerphenylCO(4''-OnC5H11)}-[AllylGly]T[Hyp][hTyr][Orn][Hyp][AllylGly]-Ethylenediamine; staple (Z) 1-7) > 100 µg/mL

Repeat with CCCCCCCCCCCCCCCC(=O)N[C@H]1CCCC[C@@H](C(N)=O)NC(=O)[C@@H]2C[C@@H](O)CN2C(=O)[C@H](CCCN)NC(=O)[C@H](CCc2ccc(O)cc2)NC(=O)[C@@H]2C[C@@H](O)CN2C(=O)[C@H]([C@@H](C)O)NC1=O > 100 µg/mL

----------
Form field: MIC (one value per entry).
Tested on: Candida albicans
method_description: Antifungal activity against Candida albicans CBS 9975 after 24 hrs by broth microdilution method
Assay type: functional
study_conditions: CBS 9975, 24 h
Positions of bridges follow the written chain, without caps; N, C: chain ends. Non-standard residues stand in square brackets, D forms with d. Residues, ends and D or L forms follow the SMILES beside them. *: point of attachment. pTerphenylCO(4''-OnC5H11) = CCCCCOc1ccc(-c2ccc(-c3ccc(C(=O)*)cc3)cc2)cc1; hTyr = N[C@@H](CCc1ccc(O)cc1)C(=O)O; Palmitoyl = CCCCCCCCCCCCCCCC(=O)*; Hyp = O=C(O)[C@@H]1C[C@@H](O)CN1; Orn = NCCC[C@H](N)C(=O)O

Use these answered entries as a reference point.
- compound: "CCCCCOc1ccc(-c2ccc(-c3ccc(C(=O)N[C@H]4CCCC[C@@H](C(=O)O)NC(=O)[C@@H]5C[C@@H](O)CN5C(=O)[C@H](CCCN)NC(=O)[C@H](CCc5ccc(O)cc5)NC(=O)[C@@H]5C[C@@H](O)CN5C(=O)[C@H]([C@@H](C)O)NC4=O)cc3)cc2)cc1"
  MIC: "> 100 µg/mL"
- compound: "CCCCCOc1ccc(-c2ccc(-c3ccc(C(=O)N[C@H]4CCCNC(=O)[C@@H]5C[C@@H](O)CN5C(=O)[C@H]([C@@H](C)O)NC(=O)[C@H](CCc5ccc(O)cc5)NC(=O)[C@@H]5C[C@@H](O)CN5C(=O)[C@H]([C@@H](C)O)NC4=O)cc3)cc2)cc1 ({pTerphenylCO(4''-OnC5H11)}-[Orn]T[Hyp][hTyr]T[Hyp]; lactam 1-C)"
  MIC: "0.47 µg/mL"
- compound: "CCCCCOc1ccc(-c2ccc(-c3ccc(C(=O)N[C@H]4CCCNC(=O)[C@@H]5C[C@@H](O)CN5C(=O)[C@H](CCCN)NC(=O)[C@H](CCc5ccc(O)cc5)NC(=O)[C@@H]5C[C@@H](O)CN5C(=O)[C@H]([C@@H](C)O)NC4=O)cc3)cc2)cc1 ({pTerphenylCO(4''-OnC5H11)}-[Orn]T[Hyp][hTyr][Orn][Hyp]; lactam 1-C)"
  MIC: "0.14 µg/mL"
- compound: "CCCCCCCCCCCCCCCC(=O)N[C@H]1CCCNC(=O)[C@@H]2C[C@@H](O)CN2C(=O)[C@H]([C@@H](C)O)NC(=O)[C@H](CCc2ccc(O)cc2)NC(=O)[C@@H]2C[C@@H](O)CN2C(=O)[C@H]([C@@H](C)O)NC1=O (Palmitoyl-[Orn]T[Hyp][hTyr]T[Hyp]; lactam 1-C)"
  MIC: "25 µg/mL"

Shifting focus to the compound that follows.
Can you share its MIC? I mean this compound: CCCCCCCCCCCCCCCC(=O)N[C@H]1CCCNC(=O)[C@@H]2C[C@@H](O)CN2C(=O)[C@H](CCCN)NC(=O)[C@H](CCc2ccc(O)cc2)NC(=O)[C@@H]2C[C@@H](O)CN2C(=O)[C@H]([C@@H](C)O)NC1=O (Palmitoyl-[Orn]T[Hyp][hTyr][Orn][Hyp]; lactam 1-C) 4.38 µg/mL

The reported measurements were obtained from ChEMBL document CHEMBL1914435.
